# Measurement Description: blockers of mitochondrial fusion, WT vs mutant – cell-based, chemical genetic, wild-type and mutant, confirmation (AID 1361)
# Measurement Context: Cell-based mitochondrial fusion phenotype, imaging, WT cells
Activity calls are given as the source filed them. How the calls were made is not given here.
Classes used: y (active), n (inactive)

- Compound: "CCOC(=O)c1cc(-c2ccc3c(c2)OCO3)nc2onc(C)c12"
  Label Value: "n"
- Compound: "Cc1ccc(C)c(N2CCN(C(=O)C3CCCCN3S(=O)(=O)c3ccc(F)cc3)CC2)c1 (centres undefined)"
  Label Value: "y"
- Compound: "CS(=O)(=O)N1CCc2cc(C(=O)N3CCOCC3)ccc21"
  Label Value: "n"
- Compound: "CNC(=S)N1CCN(c2ccc([N+](=O)[O-])cc2)CC1"
  Label Value: "n"
- Compound: "C[C@@H](C[C@@H](O)[C@H](O)C(C)(C)O)[C@@H]1CC[C@]2(C)C3=CC[C@H]4C(C)(C)C(=O)CC[C@]4(C)[C@H]3CC[C@@]12C"
  Label Value: "n"
- Compound: "Fc1ccc(Cn2nnnc2C(c2cccs2)N2CCCCCC2)cc1 (centres undefined)"
  Label Value: "n"
- Compound: "CN1/C(=C\\C=Nc2ccc3ccccc3c2)C(C)(C)c2ccccc21"
  Label Value: "n"
- Compound: "C/C1=C\\[C@@H](C)C/C=C/[C@H]2[C@@H]3O[C@]3(C)[C@@H](C)[C@H]3[C@H](Cc4c[nH]c5ccccc45)NC(=O)[C@]32C(=O)/C=C/C(=O)[C@@H]1O"
  Label Value: "y"
- Compound: "CCN1CCN(CCNC(=O)c2ccc(/C=C3\\Sc4ccccc4N(Cc4ccccc4F)C3=O)cc2)CC1"
  Label Value: "n"
